Subject Of Test: liver acetaldehyde dehydrogenase
Protocol Notes: Inhibition of liver acetaldehyde dehydrogenase (I50)
Measurement Parameters: bovine liver enzyme, propionaldehyde substrate, NAD, pH 9.6, 26.0 °C, 15 minutes; read-out: I50 values (molar concentration for 50% inhibition) for inhibition of liver acetaldehyde dehydrogenase
Measure Name: IC50 (nM)

| Molecule | Readout Units | Readout Value |
| --- | --- | --- |
| O=C(NCCCCCCCCNC(=O)C(Cl)Cl)c1ccc(Cl)cc1 [Example B-1] | nM | 2700 |
| CCN(CC)C(=S)SSC(=S)N(CC)CC [disulfiram, bis(diethylthiocarbamoyl) disulfide] | nM | 13000 |
| O=C(NCCCCCCCCNC(=O)C(Cl)Cl)c1ccc(Cl)c(Cl)c1 [Example B-2] | nM | 820 |
